Below, each entry is listed with its recorded Kd.
biological target: T1, rat DLL4 extracellular domain (rat, UniProt D3ZHH1 28-530); test: SPR (Biacore)
T1 construct: extracellular domain; also called ratDLL4 ECD
T1 sequence (D3ZHH1 28-530): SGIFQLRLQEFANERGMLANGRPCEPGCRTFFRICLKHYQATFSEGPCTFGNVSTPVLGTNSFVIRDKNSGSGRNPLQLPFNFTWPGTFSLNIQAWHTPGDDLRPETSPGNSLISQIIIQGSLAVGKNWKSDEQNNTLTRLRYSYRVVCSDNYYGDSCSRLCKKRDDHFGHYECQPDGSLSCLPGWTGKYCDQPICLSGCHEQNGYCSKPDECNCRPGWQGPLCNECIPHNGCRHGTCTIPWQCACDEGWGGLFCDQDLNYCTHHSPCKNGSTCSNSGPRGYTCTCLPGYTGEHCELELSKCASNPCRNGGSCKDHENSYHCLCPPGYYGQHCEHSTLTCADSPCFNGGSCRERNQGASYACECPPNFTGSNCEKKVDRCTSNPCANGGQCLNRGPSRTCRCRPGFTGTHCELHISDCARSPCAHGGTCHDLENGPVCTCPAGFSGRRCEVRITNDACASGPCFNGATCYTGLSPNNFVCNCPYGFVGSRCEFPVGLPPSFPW
Write the answer as a number in nM, unit excluded.

Answered examples (2):
binder: h1A11.F5 (antibody, V domains shown, also called h1A11.F5 VH / h1A11.E12 VL) VH: EVQLVESGGGLVQPGGSLRLSCAASGFTFRHFPMAWVRQAPGKGLEWVATISSSDAWPSYRDSVKGRFTISRDNAKNSLYLQMNSLRAEDTAVYYCARGYYNSPFAYWGQGTLVTVSS VL: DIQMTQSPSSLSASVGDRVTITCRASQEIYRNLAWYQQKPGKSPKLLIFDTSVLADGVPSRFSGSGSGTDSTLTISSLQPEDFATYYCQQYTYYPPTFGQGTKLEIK
assay_metric: Kd
recorded_number: 5.8
--
binder: h1A11.H2 (antibody, V domains shown, also called h1A11.H2 VH / h1A11.E12 VL) VH: EVQLVESGGGLVQPGGSLRLSCAASGFTFGNFPMSWVRQAPGKGLEWVASISSSDSWATIGDSVKGRFTISRDNAKNSLYLQMNSLRAEDTAVYYCARGYYNSPFAFWGQGTLVTVSS VL: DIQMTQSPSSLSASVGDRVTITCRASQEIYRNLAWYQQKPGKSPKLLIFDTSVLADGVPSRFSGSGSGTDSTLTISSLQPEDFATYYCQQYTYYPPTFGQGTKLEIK
assay_metric: Kd
recorded_number: 16

Next up:
# Kd (binder: h1A11.C6 (antibody, V domains shown, also called h1A11.C6 VH / h1A11VL.1) VH: EVQLVESGGGLVQPGGSLRLSCAASGFTFRNFPMAWVRQAPGKGLEWVATISSSDGWPTYRDSVKGRFTISRDNAKSSLYLQMNSLRAEDTAVYYCSRGYYNSPFAYWGQGTLVTVSS VL: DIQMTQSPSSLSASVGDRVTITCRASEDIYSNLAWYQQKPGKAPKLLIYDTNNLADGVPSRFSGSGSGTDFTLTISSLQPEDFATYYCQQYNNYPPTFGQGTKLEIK ) is 18
